These data points were gathered from paper PMC5688156.

Tested On: hsMTHFD2 (Homo sapiens, UniProt P13995)
Construct: His-tag (vector pHis-TEV) (cleaved yes)
Sequence (P13995 36-350): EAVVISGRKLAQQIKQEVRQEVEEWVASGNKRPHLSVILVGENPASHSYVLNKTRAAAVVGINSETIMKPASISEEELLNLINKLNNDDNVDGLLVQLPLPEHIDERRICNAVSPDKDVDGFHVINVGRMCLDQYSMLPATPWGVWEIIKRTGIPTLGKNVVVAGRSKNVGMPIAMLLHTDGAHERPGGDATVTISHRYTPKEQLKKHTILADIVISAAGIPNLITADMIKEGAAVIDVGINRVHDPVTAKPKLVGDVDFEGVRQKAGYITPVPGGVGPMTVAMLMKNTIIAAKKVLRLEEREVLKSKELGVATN
Assay Procedure: SPR binding to hsMTHFD2
Settings: 1:1 interaction model fit of association and dissociation signals
Measurement Kind: pKd
Keep in mind that pKd stands for -log10 of concentration in molar terms.

pKd for CO[C@H](CC(=O)O)[C@@H](C)C(=O)[C@H](C)/C=C(\C)[C@H]1OC(=O)[C@H](O)[C@H](O)/C=C/[C@H](C)CCC[C@@H]1C [carolacton] ?
7.72

----------
Tested On: spFolD (Streptococcus pneumoniae serotype 4, UniProt Q97RI9)
Sequence (Q97RI9 whole entry): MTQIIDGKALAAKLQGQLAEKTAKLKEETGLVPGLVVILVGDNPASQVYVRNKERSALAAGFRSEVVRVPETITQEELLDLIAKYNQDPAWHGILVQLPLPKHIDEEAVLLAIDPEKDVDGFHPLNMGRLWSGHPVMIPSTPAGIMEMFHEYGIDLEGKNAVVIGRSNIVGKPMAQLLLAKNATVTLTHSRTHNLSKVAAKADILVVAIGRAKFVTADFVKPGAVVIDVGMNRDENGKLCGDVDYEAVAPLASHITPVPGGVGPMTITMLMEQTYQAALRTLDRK
Measurement Kind: Kd (µM)
Dear colleague, please return just the value in µM, with no unit written.

Enter reported Kd observed with spFolD (Streptococcus pneumoniae serotype 4, UniProt Q97RI9) for CO[C@H](CC(=O)O)[C@@H](C)C(=O)[C@H](C)/C=C(\C)[C@H]1OC(=O)[C@H](O)[C@H](O)/C=C/[C@H](C)CCC[C@@H]1C [carolacton]
0.027

----------
Tested On: hsMTHFD1_DC (Homo sapiens, UniProt P11586)
Construct: hsMTHFD1 DC301; His-tag (TEV-cleavable, vector pHis-TEV); made in house; host or cells: E. coli BL21 (DE3)
Sequence (P11586 2-291 limits assumed): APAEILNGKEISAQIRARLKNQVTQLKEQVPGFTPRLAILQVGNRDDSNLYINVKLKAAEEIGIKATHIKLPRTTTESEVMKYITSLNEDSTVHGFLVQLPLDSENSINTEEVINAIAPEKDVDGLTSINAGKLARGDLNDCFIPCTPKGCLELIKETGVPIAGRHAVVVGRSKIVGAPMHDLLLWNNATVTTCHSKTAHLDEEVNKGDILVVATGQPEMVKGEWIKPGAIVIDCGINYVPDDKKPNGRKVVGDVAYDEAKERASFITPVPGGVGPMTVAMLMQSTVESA
Assay Procedure: hsMTHFD1_DC cyclohydrolase (CYH) enzyme assay
Type: biochemical
Settings: hsMTHFD1 DC301; 5 nM enzyme; read-out: IC50, carolacton inhibition on CYH activity
Measurement Kind: IC50 (nM)
Dear colleague, please return just the value in nM, with no unit written.

IC50 for CO[C@H](CC(=O)O)[C@@H](C)C(=O)[C@H](C)/C=C(\C)[C@H]1OC(=O)[C@H](O)[C@H](O)/C=C/[C@H](C)CCC[C@@H]1C [carolacton] ?
19.4

----------
Tested On: ecFolD Q98H (Escherichia coli, UniProt P24186, Q98H)
Construct: His-tag (TEV-cleavable, vector pHis-TEV)
Assay Procedure: ecFolD Q98H mutant dehydrogenase (DH) enzyme assay
Measurement Kind: IC50
Write the numeric value and append its unit.

IC50 for `CO[C@H](CC(=O)O)[C@@H](C)C(=O)[C@H](C)/C=C(\C)[C@H]1OC(=O)[C@H](O)[C@H](O)/C=C/[C@H](C)CCC[C@@H]1C` ?
313 nM
